# Tested on: chimeric Caspase-9 polypeptide
# Sequence (as listed by the source, change not shown): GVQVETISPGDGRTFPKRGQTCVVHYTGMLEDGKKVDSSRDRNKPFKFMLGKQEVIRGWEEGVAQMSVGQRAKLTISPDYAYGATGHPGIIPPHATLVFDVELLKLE
# assay-summary: Caspase mutant classes and basal activity (Table 3)
# Format: cell-based, human
# setup-conditions: class heading of Table 3

molecule	Basal Activity
C403T (protein) GFGDVGALESLRGNADLAYILSMEPCGHCLIINNVNFCRESGLRTRTGSNIDCEKLRRRFSSLHFMVEVKGDLTAKKMVLALLELAQQDHGALDCCVVVILSHGCQASHLQFPGAVYGTDGCPVSVEKIVNIFNGTSCPSLGGKPKLFFIQACGGEQKDHGFEVASTSPEDESPGSNPEPDATPFQEGLRTFDQLDAISSLPTPSDIFVSYSTFPGFVSWRDPKSGSWYVETLDDIFEQWAHSEDLQSLLLRVANAVSVKGIYKQMPGTFNFLRKKLFFKTS	Similar
C403S (protein) GFGDVGALESLRGNADLAYILSMEPCGHCLIINNVNFCRESGLRTRTGSNIDCEKLRRRFSSLHFMVEVKGDLTAKKMVLALLELAQQDHGALDCCVVVILSHGCQASHLQFPGAVYGTDGCPVSVEKIVNIFNGTSCPSLGGKPKLFFIQACGGEQKDHGFEVASTSPEDESPGSNPEPDATPFQEGLRTFDQLDAISSLPTPSDIFVSYSTFPGFVSWRDPKSGSWYVETLDDIFEQWAHSEDLQSLLLRVANAVSVKGIYKQMPGSFNFLRKKLFFKTS	Similar
G402Y (protein) GFGDVGALESLRGNADLAYILSMEPCGHCLIINNVNFCRESGLRTRTGSNIDCEKLRRRFSSLHFMVEVKGDLTAKKMVLALLELAQQDHGALDCCVVVILSHGCQASHLQFPGAVYGTDGCPVSVEKIVNIFNGTSCPSLGGKPKLFFIQACGGEQKDHGFEVASTSPEDESPGSNPEPDATPFQEGLRTFDQLDAISSLPTPSDIFVSYSTFPGFVSWRDPKSGSWYVETLDDIFEQWAHSEDLQSLLLRVANAVSVKGIYKQMPYCFNFLRKKLFFKTS	dead
C403A (protein) GFGDVGALESLRGNADLAYILSMEPCGHCLIINNVNFCRESGLRTRTGSNIDCEKLRRRFSSLHFMVEVKGDLTAKKMVLALLELAQQDHGALDCCVVVILSHGCQASHLQFPGAVYGTDGCPVSVEKIVNIFNGTSCPSLGGKPKLFFIQACGGEQKDHGFEVASTSPEDESPGSNPEPDATPFQEGLRTFDQLDAISSLPTPSDIFVSYSTFPGFVSWRDPKSGSWYVETLDDIFEQWAHSEDLQSLLLRVANAVSVKGIYKQMPGAFNFLRKKLFFKTS	Similar
F319A (protein) GFGDVGALESLRGNADLAYILSMEPCGHCLIINNVNFCRESGLRTRTGSNIDCEKLRRRFSSLHFMVEVKGDLTAKKMVLALLELAQQDHGALDCCVVVILSHGCQASHLQFPGAVYGTDGCPVSVEKIVNIFNGTSCPSLGGKPKLFFIQACGGEQKDHGFEVASTSPEDESPGSNPEPDATPAQEGLRTFDQLDAISSLPTPSDIFVSYSTFPGFVSWRDPKSGSWYVETLDDIFEQWAHSEDLQSLLLRVANAVSVKGIYKQMPGCFNFLRKKLFFKTS	Similar
